Listed here: items and their measured %Inh.
test system: WNK4; conditions: concentration: 1 μM, replicates: in singlicate; n = 1
Quantity kind: %Inh (%)

Compound: Cc1nnc(-c2ccc3occ(-c4ccc(C(C)O)cc4)c3c2)o1 (stereo not shown)
Target or test system: WNK4
Quantity kind: %Inh
Units: %
Obs value: 0

Compound: CCn1cnc2c(N)ncnc21
Target or test system: WNK4
Quantity kind: %Inh
Units: %
Obs value: 0

Compound: O=c1cc(N2CCOCC2)nc2n(Cc3cccc(C(F)(F)F)c3)ccn12
Target or test system: WNK4
Quantity kind: %Inh
Units: %
Obs value: 22

Compound: CN(C1=C(c2ccccc2)C(=O)NC1=O)c1ccccc1
Target or test system: WNK4;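 also: KINOMEscan kinase panel screen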
Quantity kind: %Inh
Units: %
Obs value: 1
